Recorded values, source paper PMC9572521.

- study system: 5-HT1A receptor (Rattus norvegicus, UniProt P19327)
- Construct: 15 μg/mL of hippocampus homogenate was incubated in triplicate with 0.8 nM; from tissue; host or cells: rat hippocampus homogenate
- Sequence (P19327 whole entry): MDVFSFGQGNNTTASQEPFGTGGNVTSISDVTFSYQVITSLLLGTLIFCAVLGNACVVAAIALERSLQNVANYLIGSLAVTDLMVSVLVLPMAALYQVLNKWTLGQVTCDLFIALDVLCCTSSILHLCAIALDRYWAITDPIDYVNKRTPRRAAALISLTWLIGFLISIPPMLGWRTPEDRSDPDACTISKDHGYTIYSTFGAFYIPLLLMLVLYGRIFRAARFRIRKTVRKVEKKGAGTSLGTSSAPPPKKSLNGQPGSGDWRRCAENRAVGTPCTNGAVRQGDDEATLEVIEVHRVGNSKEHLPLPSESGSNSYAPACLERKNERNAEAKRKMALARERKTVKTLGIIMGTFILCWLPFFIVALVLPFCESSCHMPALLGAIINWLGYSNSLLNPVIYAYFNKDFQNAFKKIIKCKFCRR
- assay summary: Functional 5-HT1A receptor [35S]GTPγS assay (agonist mode);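 note: male Sprague-Dawley rat hippocampal membranes incubated 90 min at 37 °C, bound label counted by scintillation after filtration, non-specific binding defined with 100 µM unlabeled GTPγS, one-site curve fit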
- Type: biochemical
- condition parameters: [35S]GTPγS, rat hippocampus homogenate; read-out: 5-HT1A Receptor G-Protein Stimulation EC50 (95% CI)
attribute measured: pEC50
Note on pEC50: it is the negative log10 of concentration, concentration in mol/L.

INSERT INTO assay_data (compound, attribute_measured, reported_result) VALUES
  ('O=C(NCCCN1CCN(c2ccccc2F)CC1)C1CC2C=CC1C2 (stereo not shown) [Norbo-16]', 'pEC50', 6.03);

INPUT: Identify measured pEC50 associated with O=C(NCCCN1CCN(c2ccccn2)CC1)C1CC2C=CC1C2 (stereo not shown) [Norbo-22]
OUTPUT: 6.11

INPUT: Identify measured pEC50 associated with O=C(NCCCN1CCN(c2ccccc2)CC1)C1CC2C=CC1C2 (stereo not shown) [Norbo-1]
OUTPUT: 5.92

INPUT: Identify measured pEC50 associated with O=C(NCCCN1CCN(c2ccccc2F)CC1)C1CC2C=CC1C2 (stereo not shown) [Norbo-15]
OUTPUT: 6.03
